# assay-details: Pharmacokinetics of Compound I after single and multiple oral doses of solid dispersion tablets
# Assay type: in vivo, human
# condition-set: human, in vivo, 50 mg, t1/2
readout-type: half-life (h)
Answers are plain numbers, in h.

Briefly, half-life measured for COC[C@H]1C[C@@H](c2ncc(-c3ccc4c(c3)COc3cc5c(ccc6nc([C@@H]7CC[C@H](C)N7C(=O)[C@@H](NC(=O)OC)C(C)C)[nH]c65)cc3-4)[nH]2)N(C(=O)[C@H](NC(=O)OC)c2ccccc2)C1 : 13.6

---

# assay-details: Pharmacokinetics of Compound I after single and multiple oral doses of solid dispersion tablets
# Format: in vivo, human
# condition-set: human, in vivo, 100 mg, Tmax
# Description: The Compound I formulation is prepared as described above by combining Compound I amorphous free base in a 1:1 ratio by mass with copovidone, which is all dissolved in ethanol and spray dried to produce the Compound I solid dispersion. The Compound I solid dispersion is then mixed with various excipients in a dry granulation process to produce tablets that are film coated prior to packaging. 5 mg, 25 mg, 50 mg, and 100 mg tablet formulations were prepared according to Tables 1A and 1B).
readout-type: Tmax (h)
One number for each entry, in h.

Briefly, Tmax measured for COC[C@H]1C[C@@H](c2ncc(-c3ccc4c(c3)COc3cc5c(ccc6nc([C@@H]7CC[C@H](C)N7C(=O)[C@@H](NC(=O)OC)C(C)C)[nH]c65)cc3-4)[nH]2)N(C(=O)[C@H](NC(=O)OC)c2ccccc2)C1 : 2.5

Data credit: patent US20150064252A1
